Tested on: Human papillomavirus type 1a E7 protein (residues 1-88)
Assay: HPV1a E7 small-molecule binders, primary screen, biochemical, small-molecule microarray, residues 1-88, 635 nm (AID 1129)
Details: small-molecule microarray binding, fluorescence 635 nm; higher = more signal
Values of composite z-score greater than or equal to 0.2 map to Y; values below map to N.

Some solved entries appear below for comparison.
MOLECULE: CCCC[C@@H]1C[C@H]1[C@@H](NC(=O)c1cccnc1)c1ccc(Cl)cc1
CLASS LABEL: N
//
MOLECULE: CCCC=C(CCC)[C@@H](NS(=O)(=O)c1ccc(Cl)cc1)c1ccc(C(=O)OC)cc1
CLASS LABEL: Y
//
MOLECULE: CC(=O)NCCCC[C@@H]1NC(=O)[C@H]2C[C@@H](C(=O)O)[C@@H](c3ccc(O)cc3)N2C1=O
CLASS LABEL: Y
//
MOLECULE: COc1ccc([Si](C)(C)[C@@H]2[C@@H](CCn3cc([C@H](O)c4ccccc4)nn3)O[C@]3(C(=O)N(Cc4cccc(N5CCC5=O)c4)c4ccccc43)[C@H]2C)cc1
CLASS LABEL: Y
//
MOLECULE: CS(=O)(=O)CCOC(=O)C1=CC(CCCO)=CC(c2ccc(CN3CCCC3)cc2)N(Cc2cccc(OC(F)(F)F)c2)C=C1C(=O)OCCS(C)(=O)=O (configuration not stated)
CLASS LABEL: Y
//
MOLECULE: C=CC[C@@]1(C(=O)N2CCCCC2)N=C(c2ccc(OCCCO)cc2)O[C@@H]1c1ccccc1N=[N+]=[N-]
CLASS LABEL: Y

Kindly consider the entry below.
q: In plain terms: is recorded composite z-score at least 0.2 for CCCCN1CC=CC23O[C@@H]4C=CCOC(=O)[C@@H]4[C@H]2C(=O)N(CCCCCCO)[C@@H]3C1=O (some centres not stated) ?
a: N

* * *

// reported composite z-score for each item listed
Test: probe aWnt5a binding to arrayed compounds – biochemical, biotinylated probe, 635/667 nm fluorescence, primary screen (AID 1113);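 note: score merges 667 nm fluorescence intensity with signal-to-noise per printed feature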
Settings: small-molecule microarray, higher = more signal
Quick one: just the number, no unit, thanks!

COMPOUND: O=C1O[C@@H](c2ccccc2)[C@@H](c2ccccc2)N2[C@@H](c3ccc(OCCO)cc3)[C@]3(C(=O)Nc4ccc(C#CCCO)cc43)[C@@H](C(=O)NC[C@H](O)c3ccccc3)[C@H]12
VALUE MEASURED: 0.119

COMPOUND: CCCCCCc1nc(-c2ccc(-c3ccc(Cl)c(Cl)c3)o2)c(C)c2c1[Si](C(C)C)(C(C)C)OC2
VALUE MEASURED: -0.124

COMPOUND: COC(=O)[C@@]1(CCC(=O)OC(C)(C)C)N=C(c2ccc(OCCCO)cc2)O[C@H]1c1ccccc1
VALUE MEASURED: -0.0161

q: What measured composite z-score goes with CCOC(=O)C[C@H]1[C@H](OC(=O)c2ccc(-c3ccccc3)cc2)[C@@H](NC(=O)c2ccccc2)c2cc(OCCCO)ccc2N1C(=O)Cc1ccc(OC)cc1 ?
a: -0.1

* * *

// reported composite z-score for each item listed
Tested on: PRMT1 (protein arginine N-methyltransferase 1)
Assay: small molecules binding arginine methyltransferase PRMT1 – biochemical, small-molecule microarray, 635 nm fluorescence, primary screen (AID 1088);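 note: binding of Prmt1 protein to compounds spotted on small-molecule microarray slides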
Conditions: higher = more signal
Quick one: just the number, no unit, thanks!

MOLECULE: COC(=O)[C@@]1(Cc2ccccc2)[C@H]2c3cc(C(=O)N(C)C)n(Cc4ccc(OC)c(OC)c4)c3C[C@H]2CN1C(=O)c1ccccc1
composite z-score: 0.42

MOLECULE: O=C(O)[C@H](Cc1ccccc1)n1cc(-c2ccccc2)nn1
composite z-score: 0.112

MOLECULE: C=CC[C@@]1(C(=O)N2CCCCC2)N=C(c2ccc(OCCCO)cc2)O[C@@H]1c1ccccc1CN=[N+]=[N-]
composite z-score: 1.55

q: What measured composite z-score goes with COC(=O)C[C@H]1O[C@@H](CCc2ccccc2)[C@@H](C)[C@@H]1[Si](C)(C)c1ccc(OC)cc1 ?
a: -0.604

q: What measured composite z-score goes with O=C(NCCN1CCOCC1)[C@@H]1c2ccccc2C(=O)N(Cc2cc(C(F)(F)F)cc(C(F)(F)F)c2)[C@H]1c1ccc(CO)cc1 ?
a: 1.56

q: What measured composite z-score goes with COCCOC(=O)N1C(=O)[C@@]2(c3cc(C#CC4=CCCCC4)ccc31)[C@H](C(N)=O)[C@H]1C(=O)O[C@H](c3ccccc3)[C@H](c3ccccc3)N1[C@@H]2c1ccc(O)cc1 ?
a: 1.55

q: What measured composite z-score goes with CC1CC/C=C\[C@H]2OC34C=CCN(Cn5nnc6ccccc65)C(=O)[C@H]3N(CCCCCO)C(=O)[C@@H]4C2C(=O)O1 (stereo not given in full) ?
a: 0.547

q: What measured composite z-score goes with CS(=O)(=O)CCOC(=O)C1=CC(CCCO)=CC(c2ccc(CN3CCCC3)cc2)N(Cc2cccc(OC(F)(F)F)c2)C=C1C(=O)OCCS(C)(=O)=O (stereo not given) ?
a: 1.57

q: What measured composite z-score goes with CC(C)[Si](C#CCCCC#N)(O[C@H](c1ccccc1)c1cn(Cc2cccc(Cl)c2)nn1)C(C)C ?
a: 1.52

q: What measured composite z-score goes with COc1ccc(C(=O)Nc2ccc(CN3C(=O)[C@]4(O[C@H](CC(=O)N5CCC[C@H]5CO)[C@@H]([Si](C)(C)c5ccc(OC)cc5)[C@@H]4C)c4ccccc43)cc2)cc1 ?
a: 1.54

q: What measured composite z-score goes with COc1ccc(-c2cc3c(c(Cc4ccccc4)n2)[Si](C(C)C)(C(C)C)OC3)cn1 ?
a: -0.738

q: What measured composite z-score goes with COc1ccc(NN2C(C(O)c3ccc(N(C)C)cc3)C=CC3C(=O)N(C4CCCCC4)C(=O)C32)cc1 (stereo not given) ?
a: 1.51

q: What measured composite z-score goes with CCN(CC)c1ccc(N2CC=CC34O[C@@H]5/C=C\CCC(C)OC(=O)C5[C@H]3C(=O)N(CCCCCO)[C@@H]4C2=O)cc1 (stereo not given in full) ?
a: -0.895

q: What measured composite z-score goes with CCCCC(=C=CC[C@@H](O)c1cccc(OCCO)c1)C[C@@H](O)c1ccccn1 ?
a: 1.55

q: What measured composite z-score goes with C#CCN1[C@@H](Cc2ccc(O)cc2)C(=O)O[C@H](Cc2ccccc2)[C@@H]1/C=C/C1CC1 ?
a: -0.193

* * *

Target: Follistatin-related protein 3 (Homo sapiens) (UniProt O95633)
Sequence (O95633 whole entry, looked up): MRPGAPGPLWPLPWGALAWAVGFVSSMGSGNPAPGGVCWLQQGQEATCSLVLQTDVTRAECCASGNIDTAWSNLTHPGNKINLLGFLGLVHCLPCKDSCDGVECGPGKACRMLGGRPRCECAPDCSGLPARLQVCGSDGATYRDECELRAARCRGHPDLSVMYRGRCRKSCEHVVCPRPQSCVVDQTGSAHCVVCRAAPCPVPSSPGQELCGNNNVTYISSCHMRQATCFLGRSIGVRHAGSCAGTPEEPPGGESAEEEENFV
Assay: compounds binding follistatin-related protein 3 – biochemical, small-molecule microarray, 635 nm fluorescence, primary screen (AID 1105);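 note: score merges emission near 667 nm and signal to noise per printed spot across three slides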
Conditions: FSTL3 binding, higher = more signal
METRIC NAME: composite z-score

Would you please look over these solved cases?
MOLECULE: COC(=O)C(CC#Cc1ccc2c(c1)[C@]1(C(=O)N2)[C@H](c2ccccc2OCCO)N2[C@H](c3ccccc3)[C@H](c3ccccc3)OC(=O)[C@H]2[C@@H]1C(=O)O)C(=O)OC
METRIC NAME: composite z-score
VALUE MEASURED: 0.356

MOLECULE: COc1ccc([C@H]2C[C@H]3C(I)=C[C@@H]2C(=O)[C@]32CO2)cc1
METRIC NAME: composite z-score
VALUE MEASURED: 0.926

MOLECULE: CCCCN1CC=CC23O[C@@H]4C=CCCOC(=O)C4[C@H]2C(=O)N(CCCCCO)[C@@H]3C1=O (stereo not given in full)
METRIC NAME: composite z-score
VALUE MEASURED: -1.15

q: What measured composite z-score goes with [N-]=[N+]=Nc1ccccc1[C@H]1OC(c2ccc(OCCCO)cc2)=N[C@@]1(CCS(=O)(=O)c1ccccc1)C(=O)NCc1ccccc1 ?
a: 1.14

q: What measured composite z-score goes with CCCCCCc1nc(-c2ccc(-c3ccc(Cl)c(Cl)c3)o2)c(C)c2c1[Si](C(C)C)(C(C)C)OC2 ?
a: -0.374

q: What measured composite z-score goes with CCCNC(=O)[C@@H]1c2ccccc2C(=O)N(Cc2ccccc2OC)[C@H]1c1ccc(CO)cc1 ?
a: 0.995

q: What measured composite z-score goes with C[N+](C)(C)CCCC[C@@H]1NC(=O)[C@@H]2C[C@H](C(=O)NCCCCCN)[C@H](c3ccc(O)cc3)N2C1=O ?
a: 0.878

q: What measured composite z-score goes with CC[C@@H]1C=C(C(=O)O)[C@H](c2cccc3ccccc23)N1S(=O)(=O)c1ccc(C)cc1 ?
a: 0.495

q: What measured composite z-score goes with COc1ccc([Si](C)(C)[C@H]2[C@H](CCO)O[C@@]3(C(=O)N(Cc4ccccc4)c4ccc(N5CCCCC5=O)cc43)[C@@H]2C)cc1 ?
a: 0.579

q: What measured composite z-score goes with Cc1ccc(S[C@]2(C(=O)O)CC(=O)N(C(C)C)[C@@H]2c2ccc(CO)cc2)cc1 ?
a: 0.147

q: What measured composite z-score goes with [N-]=[N+]=Nc1ccccc1C[C@]1(C(=O)NCc2ccccc2)N=C(c2ccc(OCCCO)cc2)O[C@H]1c1ccccc1N=[N+]=[N-] ?
a: 0.646

q: What measured composite z-score goes with COC(=O)c1c(CC[C@@H](CO)NC(=O)NCCc2c[nH]c3ccccc23)oc(C(=O)Cc2ccccc2)c1C(=O)OC ?
a: 0.321

q: What measured composite z-score goes with COc1cc2c(cc1O)C(c1cccs1)N(Cc1cccc(OC(F)(F)F)c1)CC2 (stereo not given) ?
a: 0.105

q: What measured composite z-score goes with CCOC(=O)[C@H]1C/C=C/C[C@H](C(=O)OCC)C(=O)O[C@H]2[C@@H](OC)O[C@H](CO)[C@@H](OC(=O)c3ccc(Br)cc3)[C@@H]2OC1=O ?
a: 0.366

q: What measured composite z-score goes with COc1ccc(NC(=O)O[C@H]2[C@H](OC(=O)c3cc4ccccc4[nH]3)[C@@H](OC(=O)c3cc4ccccc4[nH]3)[C@@H](OC)O[C@@H]2CO)cc1 ?
a: 0.448
